Please respond with reported IC50 for every item in the list.
target desc: rat lens aldose reductase (RLAR) (Rattus norvegicus, UniProt P07943)
Construct: from tissue; host or cells: lens of Sprague-Dawley rats (supernatant of homogenate)
protocol description: RLAR inhibitory activity assay (rat lens homogenate, DL-glyceraldehyde substrate)
Assay type: biochemical
setup conditions: rat lens homogenate; substrate DL-glyceraldehyde; mean ± S.E.M. of triplicate experiments; read-out: RLAR IC50
State the answer as a number, implicitly in µM.

Result for CC(C)=CCC[C@](C)(O[C@@H]1O[C@H](CO)[C@@H](O)[C@H](O)[C@H]1O)[C@H]1CC[C@]2(C)[C@@H]1[C@H](O)C[C@@H]1[C@@]3(C)CC[C@H](O)C(C)(C)[C@@H]3[C@@H](O[C@@H]3O[C@H](CO)[C@@H](O)[C@H](O)[C@H]3O[C@@H]3O[C@@H](C)[C@H](O)[C@@H](O)[C@H]3O)C[C@]12C [Ginsenoside Re] , tested on rat lens aldose reductase (RLAR) (Rattus norvegicus, UniProt P07943), IC50: 81.3

Form field IC50 for item CC(=O)OC[C@H]1O[C@@H](O[C@H]2[C@H](O[C@H]3CC[C@@]4(C)C(CC[C@]5(C)C4C[C@@H](O)[C@@H]4C([C@](C)(CCC=C(C)C)O[C@@H]6O[C@H](CO[C@@H]7OC[C@H](O)[C@H](O)[C@H]7O)[C@@H](O)[C@H](O)[C@H]6O)CC[C@]45C)C3(C)C)O[C@H](CO)[C@@H](O)[C@@H]2O)[C@H](O)[C@@H](O)[C@@H]1O (stereo partly drawn) [Ginsenoside Rs1] on rat lens aldose reductase (RLAR) (Rattus norvegicus, UniProt P07943): 143

Readout IC50 for CC(C)=CCCC(C)(O)C1CCC2(C)C1C(O)CC1C3(C)CCC(O)C(C)(C)C3C(OC3OC(CO)C(O)C(O)C3OC3OC(C)C(O)C(O)C3O)CC12C [(20S) ginsenoside Rg2] , test system rat lens aldose reductase (RLAR) (Rattus norvegicus, UniProt P07943), was 14.4

Hello, the source for this data is paper PMC9000482, in case you need it.
